Measured values drawn from the supplement of paper PMC10567573 for this set.

B1: VDR (parent)
chain: LIKFQVGLKKLNLHEEEHVLLMAI

- Variants of: B1
- Method Notes: protein stability index of a GFP-peptide fusion (GPS, HEK-293T) (PSI 1-6); higher = more stable;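 further: lentivirally expressed fusions sorted by FACS into six bins by GFP to DsRed ratio, PSI derived from sequencing read proportions per bin multiplied by bin number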
- Condition Label: c terminus: a fixed tail appended
Task for the reader: assign each of the following variants its reported protein stability index.
Just the number, please, no unit after it.

Qu. Field request: protein stability index | item: LIKFQVGLKKLNLHEEEHVLVMAI
Ans. 4.64

Qu. I would be grateful if you could share the reported protein stability index for LIKFQVGLKKLNLHEEEHVLLMAT .
Ans. 1.85

Qu. Which protein stability index value is on record for LIKFQVGTKKLNLHEEEHVLLMAI ?
Ans. 2.62

Qu. I'd like to know its protein stability index. The variant in question is LIKFQVGLKKLNRHEEEHVLLMAI
Ans. 3.69

Qu. # lookup: protein stability index of LIKFQVGLKKLNMHEEEHVLLMAI
Ans. 3.14

Qu. Which protein stability index value is on record for LIKFQVGLKKLNLEEEEHVLLMAI ?
Ans. 4.65

Qu. Name the reported protein stability index value associated with the variant LIKFQVGQKKLNLHEEEHVLLMAI
Ans. 1.56

Qu. For the variant LIKFQVGLKKLNFHEEEHVLLMAI , what protein stability index is on record?
Ans. 1.7

Qu. For LIKFQVGLKKLNLHEEEMVLLMAI , what is its reported protein stability index?
Ans. 3.56

Qu. Using the record for LIKFQVWLKKLNLHEEEHVLLMAI , report its protein stability index.
Ans. 3.47

Qu. I would be grateful if you could share the reported protein stability index for LIKFQVGLKKLNLHEEEHVLLCAI .
Ans. 2.61

Qu. For the variant shown here, LIKFQVGLKFLNLHEEEHVLLMAI , give the reported protein stability index.
Ans. 3.36

Qu. protein stability index for LIKFQVLLKKLNLHEEEHVLLMAI ?
Ans. 2.4

Qu. For the variant shown here, LIKFQVGLKKLNLHEEEHDLLMAI , give the reported protein stability index.
Ans. 3.54

Qu. # lookup: protein stability index of LIKLQVGLKKLNLHEEEHVLLMAI
Ans. 4.2

Qu. Entry LIKFQVGLKKLNLHVEEHVLLMAI : reported protein stability index = ?
Ans. 2.61

Qu. Would you kindly share the measured protein stability index for LIKHQVGLKKLNLHEEEHVLLMAI ?
Ans. 1.91

Qu. Please give the measured protein stability index for this variant: LIKFQVGLKKLNQHEEEHVLLMAI
Ans. 3.27

Qu. Query: protein stability index; subject: NIKFQVGLKKLNLHEEEHVLLMAI
Ans. 2.01

Qu. What does the record list as protein stability index for LIKFQVGLKKQNLHEEEHVLLMAI ?
Ans. 2

Qu. Entry LIKNQVGLKKLNLHEEEHVLLMAI has what protein stability index?
Ans. 4.44

Qu. Given LIKFQVGLKALNLHEEEHVLLMAI , state its recorded protein stability index.
Ans. 3.24

Qu. Would you mind telling me what protein stability index value was observed for LIKFQVGLKKLNLHEEEHHLLMAI ?
Ans. 3.1

Qu. Name the recorded protein stability index for LIKFQVGLKKLNLHEEEHVLLNAI .
Ans. 2.99

Qu. Which protein stability index value belongs to LIKFQGGLKKLNLHEEEHVLLMAI ?
Ans. 2.2

Qu. Look up protein stability index for this variant: LIKFQVDLKKLNLHEEEHVLLMAI
Ans. 2.61

Qu. Fill in: protein stability index of LIKFQVGLKKLNGHEEEHVLLMAI is ___
Ans. 1.88

Qu. Which measured protein stability index value corresponds to LIKFQVGLKKLNLHEENHVLLMAI ?
Ans. 2.3

Qu. Please report the recorded protein stability index for LIKFQVQLKKLNLHEEEHVLLMAI .
Ans. 3.23

Qu. Consider the variant shown here: LIKFQHGLKKLNLHEEEHVLLMAI What is its recorded protein stability index?
Ans. 4.18

Qu. Entry under review: LIKFQVGLKKLNLHEEEHVGLMAI . Reported protein stability index?
Ans. 4.03

Qu. Entry under review: LIKFQVGLKKLNLHEEEHVLPMAI . Reported protein stability index?
Ans. 1.69

Qu. Form field: reported protein stability index of LIKFQVGLKDLNLHEEEHVLLMAI
Ans. 3.4

Qu. State the recorded protein stability index for this entry: LIKFQVGLKKLILHEEEHVLLMAI
Ans. 2.19

Qu. Given LIKFQVGLAKLNLHEEEHVLLMAI , state its recorded protein stability index.
Ans. 2.27

Qu. # query: protein stability index of entry LIKFQVGLKKLNLHEEMHVLLMAI
Ans. 2.37

Qu. I'd like to know its protein stability index. The variant in question is LIKFQVGLKHLNLHEEEHVLLMAI
Ans. 1.38

Qu. I have this variant here, LIKFQPGLKKLNLHEEEHVLLMAI , and I need its recorded protein stability index.
Ans. 2.85

Qu. Please give the measured protein stability index for this variant: LIKFQVGLKKDNLHEEEHVLLMAI
Ans. 2.78

Qu. Data request, read-out protein stability index, for LIKFFVGLKKLNLHEEEHVLLMAI
Ans. 2.56

Qu. I would be grateful if you could share the reported protein stability index for LIKFQVGLKKLNLHEEEHVILMAI .
Ans. 2.83

Qu. Quick one: protein stability index for LIKFWVGLKKLNLHEEEHVLLMAI ?
Ans. 3.59

Qu. Need protein stability index of LIKFQVGLKKLNLHEPEHVLLMAI , thanks.
Ans. 3.81

Qu. For the variant shown here, LIKFQVGLKKLNLHEEEHVLLMHI , give the reported protein stability index.
Ans. 2.49

Qu. Name the reported protein stability index value associated with the variant LIKQQVGLKKLNLHEEEHVLLMAI
Ans. 2.09

Qu. I'd like to know its protein stability index. The variant in question is LIKFQVGLKKLNLHEEYHVLLMAI
Ans. 3.14

Qu. Quick one: protein stability index of LIQFQVGLKKLNLHEEEHVLLMAI ?
Ans. 1.21

Qu. I would be grateful if you could share the reported protein stability index for LIKFQVGLIKLNLHEEEHVLLMAI .
Ans. 1.03

Qu. I'd like to know its protein stability index. The variant in question is LIKFQVGLKKLNLCEEEHVLLMAI
Ans. 2.28

Qu. What value of protein stability index has been recorded for this entry: LIKFQVGLMKLNLHEEEHVLLMAI
Ans. 3.2

Qu. Consider the variant shown here: LIKFQVGLKELNLHEEEHVLLMAI What is its recorded protein stability index?
Ans. 2.11

Qu. Any idea what protein stability index was measured for LIKFQVGLKKLNLHEEEHCLLMAI ?
Ans. 1.63

Qu. Tell me the measured protein stability index of LIKFQCGLKKLNLHEEEHVLLMAI , please.
Ans. 3.2

Qu. Please report the recorded protein stability index for LIKFQVGLKKLNLHEEEHVLLLAI .
Ans. 2.66

Qu. Looking for the measured protein stability index of LIKFQVGLKKLNLHQEEHVLLMAI , can you help?
Ans. 2.77

Qu. Could you share which protein stability index value was measured for LIKFLVGLKKLNLHEEEHVLLMAI ?
Ans. 3.08
